// values below are reported melting point

Here are 2 molecules together with their reported answers.
                               molecule  observed_value
0  O=C(O)CNC(=O)CNS(=O)(=O)Cc1ccc(F)cc1   198 to 200 °C
1            O=C(O)c1cccc2[nH]c(=O)oc12   329 to 331 °C

Asked: Recorded melting point of Cc1nnc(Sc2ccc(N)c(C)c2)s1 , please.
Given back: 142 to 144 °C

Asked: For Cc1cc(C)nc(NCc2cccc(C(=O)O)c2)n1 , what is its reported melting point?
Given back: 224 to 226 °C

Asked: What does the data say about its melting point? Entry: O=C(O)c1cnn(-c2ccccc2)n1
Given back: 183 to 185 °C

Asked: If you can, please state the reported melting point value of Cc1nc(-c2ncccn2)sc1C(=O)O .
Given back: 224 to 226 °C

Asked: Value lookup for melting point; key = O=C(O)C1=Cc2cccc(O)c2OC1
Given back: 233 to 235 °C

Asked: I am curious: what melting point value has been reported for COC(=O)C(=O)CC(=O)c1ccc(C)cc1 ?
Given back: 86 to 88 °C

Asked: Return reported melting point; argument: Cc1cncc(C(=O)O)c1O
Given back: 249 to 251 °C

Asked: Reported melting point, molecule N#CCc1ccc(NC2CCCCC2)cc1 : ____
Given back: 57 to 59 °C

Asked: What value of melting point has been recorded for this entry: CC(=O)Nc1ccc(C(=O)C(C)Cl)cc1 (stereo not given)
Given back: 190 to 193 °C

----------
Recorded Metric: melting point

In [3]: df
Out[3]:
                                   compound  observed_value
0                Cc1ncc(C=O)n1-c1ccc(Br)cc1   110 to 112 °C
1               FC(F)(F)c1ccccc1Nc1nnc(S)s1   197 to 199 °C
2  CC1CCC2C(=O)N(C)C(=O)C2C1C(=O)O (stereo unspecified)   151 to 153 °C
3                        O=C(O)c1cccc(CO)c1   111 to 113 °C
4        O=C(O)c1cnn(-c2ncccc2Cl)c1C(F)(F)F   149 to 151 °C

// switching to the query compound
Asked: Find the recorded melting point belonging to O=C(CCl)Nc1cc(Cl)ccc1C(=O)O and report it.
Given back: 152 to 154 °C

----------
melting point values for the molecules below.

In [3]: df
Out[3]:
                        molecule  observed_value
0             Cc1csc(NCC(=O)O)n1   224 to 226 °C
1  O=C(O)c1cccc(COc2cccc(F)c2)c1   108 to 110 °C
2         Nc1cc(F)cc(N2CCOCC2)c1     91 to 93 °C
3           Clc1ccc(N2CCNCC2)nc1     64 to 66 °C
4            OCCCOc1cccc2ccccc12     65 to 67 °C

Asked: Which measured melting point value corresponds to O=C(O)c1nn(-c2ccc(Br)cc2)c2c1CCCC2 ?
Given back: 232 to 234 °C

Asked: Which melting point is reported for this molecule? CC1CNC(=Nc2cnc3ccccc3c2)S1 (stereo not drawn)
Given back: 144 to 146 °C

Asked: Request the reported melting point associated with NS(=O)(=O)c1ccc(CCn2c(S)nc3ccccc3c2=O)cc1
Given back: 294 to 296 °C
